Provenance of the data: patent US20090030024A1

Test: logP determination by retention times (calibration with alkan-2-ones)
Settings: logP, values marked *: HPLC on reversed-phase C 18, 40° C., mobile phase 0.1% aqueous formic acid and acetonitrile, linear gradient 10% to 95% acetonitrile
chromatographic logP: recorded values
Kindly provide the number alone.

Past entries and their recorded results:
>  <COMPOUND>
COc1cc(Nc2nccc(-c3sc(C(C)(C)C)nc3C)n2)cc(OC)c1OC [Example 888]

>  <chromatographic logP>
3.48

$$$$
>  <COMPOUND>
COc1ccc(Nc2nccc(-c3sc(C(C)(C)C)nc3C)n2)cn1 [Example 886]

>  <chromatographic logP>
3.42

$$$$
>  <COMPOUND>
CCc1nc(C)c(-c2nc(Nc3ccc(S(=O)(=O)N(C)C)cc3)ncc2Br)s1 [Example 921]

>  <chromatographic logP>
3.36

$$$$
>  <COMPOUND>
Cc1nc(C(C)(C)C)sc1-c1ccnc(Nc2ccc(F)cc2)n1 [Example 883]

>  <chromatographic logP>
4.18

$$$$
>  <COMPOUND>
COc1cc(Nc2ncc(Cl)c(-c3sc(C)nc3C)n2)cc(OC)c1OC [Example 874]

>  <chromatographic logP>
2.82

$$$$

# input Quick check: chromatographic logP of CC(=O)Nc1cccc(Nc2nccc(-c3sc(C(C)C)nc3C)n2)c1 [Example 818] ?
# output 2.26

# input Quick check: chromatographic logP of COCCCNc1nc(C)c(-c2ccnc(Nc3cccc([N+](=O)[O-])c3)n2)s1 [Example 865] ?
# output 2.03

# input Quick check: chromatographic logP of Cc1nc(NCC2CCCO2)sc1-c1ccnc(Nc2ccc(F)cc2F)n1 (stereo not drawn) [Example 809] ?
# output 2.09

# input Quick check: chromatographic logP of COCCCNc1nc(C)c(-c2ccnc(Nc3ccc(NC(C)=O)cc3)n2)s1 [Example 854] ?
# output 1.4

====

Experiment: logP determination by retention times (calibration with alkan-2-ones)
Details: * HPLC reversed-phase C18, 40° C., mobile phase 0.1% aqueous formic acid and acetonitrile, linear gradient 10% to 95% acetonitrile
logP: recorded values

>  <COMPOUND>
COc1ccc(Nc2nccc(-c3sc(N(C)C)nc3C)n2)cn1 [Example 785]

>  <PROPERTY_MEASURED>
logP

>  <RECORDED_VALUE>
1.55*

$$$$
>  <COMPOUND>
CN(C)c1nc(C(F)(F)F)c(-c2ccnc(Nc3cccc(Cl)c3)n2)s1 [Example 695]

>  <PROPERTY_MEASURED>
logP

>  <RECORDED_VALUE>
4.51*

$$$$
>  <COMPOUND>
Cc1nc(N(C)C)sc1-c1ccnc(Nc2ccc3c(c2)OC(F)(F)C(F)(F)O3)n1 [Example 774]

>  <PROPERTY_MEASURED>
logP

>  <RECORDED_VALUE>
3.6*

$$$$

# input Quick check: logP of CNc1nc(C)c(-c2ccnc(Nc3cccc(NC(C)=O)c3)n2)s1 [Example 684] ?
# output 1.26*

# input Quick check: logP of CC(=O)Nc1ccc(Nc2nccc(-c3sc(N(C)C)nc3C(F)(F)F)n2)cc1 [Example 699] ?
# output 2.58*

# input Quick check: logP of CNc1nc(C)c(-c2ccnc(Nc3ccc(OC(C)=O)cc3)n2)s1 [Example 754] ?
# output 1.73*

====

Test: logP determination by retention times (calibration with alkan-2-ones)
chromatographic logP: recorded values
Kindly provide the number alone.

Past entries and their recorded results:
>  <INPUT_SMILES>
Cc1nc(N)sc1-c1ccnc(Nc2ccc(O)cc2)n1

>  <chromatographic logP>
0.93

$$$$
>  <INPUT_SMILES>
Cc1nc(N)sc1-c1ccnc(Nc2cccc([N+](=O)[O-])c2)n1

>  <chromatographic logP>
1.5

$$$$
>  <INPUT_SMILES>
Cc1nc(C2CC2)sc1-c1ccnc(Nc2cccc(O)c2)n1

>  <chromatographic logP>
2.24

$$$$

# input Quick check: chromatographic logP of "Cc1cc(Nc2nccc(-c3sc(N)nc3C)n2)ccc1F" ?
# output 1.68

# input Quick check: chromatographic logP of "Cc1nc(C2CC2)sc1-c1ccnc(Nc2ccc(F)cc2)n1" ?
# output 3.31

====

pest or weed control at 1000 ppm: recorded values
Test system: Leptosphaeria nodorum
Experiment: Leptosphaeria nodorum test (wheat)/protective
Assay type: in vivo
Details: Parastagonospora nodorum, 240 h, protective spray, active compound concentration 1000 ppm, evaluation 10 days after inoculation, read-out: efficacy

Past entries and their recorded results:
>  <COMPOUND>
COc1cc(Nc2nccc(-c3sc(C)nc3C)n2)cc(OC)c1OC [Example 182]

>  <SYSTEM_UNDER_TEST>
Leptosphaeria nodorum

>  <pest or weed control at 1000 ppm>
≥ 70%

$$$$
>  <COMPOUND>
Cc1nc(C)c(-c2ccnc(Nc3ccc(N(C)C)c(Cl)c3)n2)s1 [Example 62]

>  <SYSTEM_UNDER_TEST>
Leptosphaeria nodorum

>  <pest or weed control at 1000 ppm>
≥ 70%

$$$$
>  <COMPOUND>
COc1ccc(Nc2nccc(-c3sc(C(C)C)nc3C)n2)cn1 [Example 247]

>  <SYSTEM_UNDER_TEST>
Leptosphaeria nodorum

>  <pest or weed control at 1000 ppm>
≥ 70%

$$$$
>  <COMPOUND>
COc1cc(Nc2nccc(-c3sc(C(C)C)nc3C)n2)cc(OC)c1OC [Example 244]

>  <SYSTEM_UNDER_TEST>
Leptosphaeria nodorum

>  <pest or weed control at 1000 ppm>
≥ 70%

$$$$
>  <COMPOUND>
Cc1nc(C(C)C)sc1-c1ccnc(Nc2cccc(O)c2)n1 [Example 151]

>  <SYSTEM_UNDER_TEST>
Leptosphaeria nodorum

>  <pest or weed control at 1000 ppm>
≥ 70%

$$$$
>  <COMPOUND>
CCc1nc(C)c(-c2ccnc(Nc3ccc(NC(=O)OCCOC)cc3)n2)s1 [Example 73]

>  <SYSTEM_UNDER_TEST>
Leptosphaeria nodorum

>  <pest or weed control at 1000 ppm>
≥ 70%

$$$$

# input Quick check: pest or weed control at 1000 ppm of Cc1nc(C)c(-c2ccnc(Nc3ccccc3)n2)s1 [Example 190] ?
# output ≥ 70%

# input Quick check: pest or weed control at 1000 ppm of CCc1nc(C)c(-c2ccnc(Nc3ccc(OC)nc3)n2)s1 [Example 240] ?
# output ≥ 70%

# input Quick check: pest or weed control at 1000 ppm of CC(=O)Nc1ccc(Nc2nccc(-c3sc(C(C)C)nc3C)n2)cc1 [Example 461] ?
# output ≥ 70%

====

Test: logP determination by retention times (calibration with alkan-2-ones)
Details: logP, values marked *: HPLC on reversed-phase C 18, 40° C., mobile phase 0.1% aqueous formic acid and acetonitrile, linear gradient 10% to 95% acetonitrile
# chromatographic logP >= 2 gives YES, anything below gives NO

Worked set:
>  <COMPOUND>
CC(=O)c1ccc(Nc2nccc(-c3sc(C(C)C)nc3C)n2)cc1

>  <CATEGORY>
YES

$$$$
>  <COMPOUND>
CCc1nc(C)c(-c2nc(Nc3ccccc3Cl)ncc2Cl)s1

>  <CATEGORY>
YES

$$$$
>  <COMPOUND>
COCCOc1nc(C)c(-c2ccnc(Nc3cccc(Cl)c3)n2)s1

>  <CATEGORY>
YES

$$$$

# input # check: chromatographic logP of "Cc1nc(C)c(-c2nc(Nc3ccccc3)ncc2Cl)s1" is greater than or equal to 2
# output YES

# input # check: chromatographic logP of "COCCOc1nc(C)c(-c2ccnc(Nc3cccc(C(C)=O)c3)n2)s1" is greater than or equal to 2
# output YES

# input # check: chromatographic logP of "CCc1nc(C)c(-c2nc(Nc3ccccc3)ncc2Br)s1" is greater than or equal to 2
# output YES

# input # check: chromatographic logP of "COCCOc1nc(C)c(-c2ccnc(Nc3ccc(F)cc3)n2)s1" is greater than or equal to 2
# output YES

# input # check: chromatographic logP of "CCc1nc(C)c(-c2nc(Nc3cc(OC)c(OC)c(OC)c3)ncc2Cl)s1" is greater than or equal to 2
# output YES

# input # check: chromatographic logP of COCC(C)Nc1nc(C)c(-c2ccnc(Nc3ccc4c(c3)C(=O)OC4)n2)s1 (stereo not shown) is greater than or equal to 2
# output NO

====

Tested on: Leptosphaeria nodorum
Experiment: Leptosphaeria nodorum test (wheat)/protective
Format: in vivo
Details: Parastagonospora nodorum, 240 h, protective spray, active compound concentration 1000 ppm, evaluation 10 days after inoculation, read-out: efficacy
PROPERTY_MEASURED: pest or weed control at 1000 ppm

Past entries and their recorded results:
>  <COMPOUND>
Cc1nc(C(C)C)sc1-c1ccnc(Nc2ccccc2)n1 [Example 251]

>  <PROPERTY_MEASURED>
pest or weed control at 1000 ppm

>  <RECORDED_VALUE>
≥ 70%

$$$$
>  <COMPOUND>
CC(=O)c1cccc(Nc2nccc(-c3sc(C4CC4)nc3C)n2)c1 [Example 7]

>  <PROPERTY_MEASURED>
pest or weed control at 1000 ppm

>  <RECORDED_VALUE>
≥ 70%

$$$$

# input Quick check: pest or weed control at 1000 ppm of Cc1nc(C)c(-c2ccnc(Nc3ccc(F)cc3F)n2)s1 [Example 759] ?
# output ≥ 70%
